molecular target: NEK7 (Homo sapiens (Human), UniProt Q8TDX7+Q96SW2); assay: NEK7 NanoBiT degradation assay in Cal51 NEK7 NanoBiT cell line; format: cell-based; details: Cal51 NEK7 NanoBiT cells, 24 hours; read-out: NEK7 NanoBiT DC50
Sequence (Q8TDX7 whole entry): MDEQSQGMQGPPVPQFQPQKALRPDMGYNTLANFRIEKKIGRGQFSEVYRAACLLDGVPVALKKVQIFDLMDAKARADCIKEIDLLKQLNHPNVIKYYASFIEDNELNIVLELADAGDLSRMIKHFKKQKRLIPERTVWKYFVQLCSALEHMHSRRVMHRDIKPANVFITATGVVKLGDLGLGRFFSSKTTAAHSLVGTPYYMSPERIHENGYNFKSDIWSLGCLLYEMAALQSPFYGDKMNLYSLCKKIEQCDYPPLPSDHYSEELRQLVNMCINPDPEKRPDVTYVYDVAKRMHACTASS
Sequence (Q96SW2 whole entry): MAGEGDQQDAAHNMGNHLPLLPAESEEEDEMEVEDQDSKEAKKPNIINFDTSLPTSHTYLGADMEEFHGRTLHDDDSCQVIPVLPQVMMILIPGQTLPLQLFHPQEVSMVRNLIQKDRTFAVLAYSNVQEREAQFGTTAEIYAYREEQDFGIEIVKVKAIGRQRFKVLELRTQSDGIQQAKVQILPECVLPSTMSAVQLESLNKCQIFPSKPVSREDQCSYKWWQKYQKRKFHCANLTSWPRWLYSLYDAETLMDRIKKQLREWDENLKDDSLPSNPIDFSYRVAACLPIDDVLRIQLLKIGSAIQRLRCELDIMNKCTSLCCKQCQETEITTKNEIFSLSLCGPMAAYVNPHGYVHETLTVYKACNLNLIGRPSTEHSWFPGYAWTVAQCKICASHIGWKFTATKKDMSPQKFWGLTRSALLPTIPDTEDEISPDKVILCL
Sequence (Q16531 2-1140 partner): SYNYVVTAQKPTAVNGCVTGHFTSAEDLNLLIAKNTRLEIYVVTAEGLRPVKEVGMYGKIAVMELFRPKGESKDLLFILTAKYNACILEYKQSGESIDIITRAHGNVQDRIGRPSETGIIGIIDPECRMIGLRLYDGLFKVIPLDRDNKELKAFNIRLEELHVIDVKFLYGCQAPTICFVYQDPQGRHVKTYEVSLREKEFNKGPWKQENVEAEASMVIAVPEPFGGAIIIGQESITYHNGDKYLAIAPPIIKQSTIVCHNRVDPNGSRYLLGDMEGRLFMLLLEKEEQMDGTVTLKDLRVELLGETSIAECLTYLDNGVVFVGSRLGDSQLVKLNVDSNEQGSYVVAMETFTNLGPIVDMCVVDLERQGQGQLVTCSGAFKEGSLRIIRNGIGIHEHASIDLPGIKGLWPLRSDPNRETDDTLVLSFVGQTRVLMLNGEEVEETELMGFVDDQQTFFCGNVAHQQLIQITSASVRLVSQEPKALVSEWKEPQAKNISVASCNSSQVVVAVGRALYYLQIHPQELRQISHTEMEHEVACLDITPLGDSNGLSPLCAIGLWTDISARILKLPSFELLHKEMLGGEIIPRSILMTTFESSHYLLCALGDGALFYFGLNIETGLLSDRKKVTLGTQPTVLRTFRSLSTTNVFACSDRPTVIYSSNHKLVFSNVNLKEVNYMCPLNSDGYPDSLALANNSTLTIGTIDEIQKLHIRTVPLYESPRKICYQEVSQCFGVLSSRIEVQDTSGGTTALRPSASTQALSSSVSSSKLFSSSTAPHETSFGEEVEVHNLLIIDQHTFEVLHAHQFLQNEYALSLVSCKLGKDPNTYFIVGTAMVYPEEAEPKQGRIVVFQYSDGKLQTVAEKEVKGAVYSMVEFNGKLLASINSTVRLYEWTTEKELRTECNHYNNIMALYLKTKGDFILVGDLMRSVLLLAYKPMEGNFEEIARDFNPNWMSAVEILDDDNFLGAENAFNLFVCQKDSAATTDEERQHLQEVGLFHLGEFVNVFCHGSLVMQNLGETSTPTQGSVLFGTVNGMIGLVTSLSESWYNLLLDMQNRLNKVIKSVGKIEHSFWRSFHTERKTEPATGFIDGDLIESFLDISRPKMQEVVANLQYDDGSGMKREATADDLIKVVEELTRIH
MEASURED_ATTRIBUTE: DC50 (µM)
The response must be a number in µM with no trailing unit.

Sample records with DC50:
1. Cc1cc(C(C)(C)C(=O)NCc2cc(Cl)c(C3CCC(=O)NC3=O)c(Cl)c2)cc(C)n1 (stereo not shown) [Compound 86]    0.021
2. CC(C)(C(=O)NCc1cc(Cl)c(C2CCC(=O)NC2=O)c(Cl)c1)c1cccc(NS(C)(=O)=O)c1 (stereo not shown) [Compound 54]    0.001
3. COc1cnc(C(C)(C)C(=O)NCc2cc(Cl)c(C3CCC(=O)NC3=O)c(Cl)c2)nc1C (stereo not shown) [Compound 221]    0.019

# input for lookup
### Prompt Write down measured DC50 (NEK7 (Homo sapiens (Human), UniProt Q8TDX7+Q96SW2)) for this molecule. CC(C)(C(=O)NCc1cc(Cl)c(C2CCC(=O)NC2=O)c(Cl)c1)c1ccc2cnncc2c1 (stereo not shown) [Compound 35]
### Response 0.019

###

molecular target: NEK7 (Homo sapiens (Human), UniProt Q8TDX7+Q96SW2); assay: NEK7 NanoBiT degradation assay in Cal51 NEK7 NanoBiT cell line; format: cell-based; details: NEK7 degradation, Cal51 NEK7 NanoBiT cells, 24 hours; read-out: NanoBiT DC50
Measured DC50 by item

Sample records with DC50:
1. CC(C)(C(=O)NCc1ccc(C2CCC(=O)NC2=O)c(Cl)c1)c1ccc(OC(F)(F)F)cc1 (centres unmarked)    ≤ 100 nM
2. Cc1ncc(C(C)(C)C(=O)NCc2cc(F)c(C3CCC(=O)NC3=O)c(Cl)c2)o1 (centres unmarked)    100 to 1000 nM
3. O=C1CCC(c2c(Cl)cc(CNC(=O)C3(c4ccncc4)CCCC3)cc2Cl)C(=O)N1 (centres unmarked)    ≤ 100 nM
4. CC(C)(C(=O)NCc1cc(Cl)c(C2CCC(=O)NC2=O)c(Cl)c1)c1ccn2cnnc2c1 (centres unmarked)    ≤ 100 nM
5. CC(C)(C(=O)NCc1cc(Cl)c(C2CCC(=O)NC2=O)c(Cl)c1)c1ncco1 (centres unmarked)    ≤ 100 nM

### Prompt Write down measured DC50 (NEK7 (Homo sapiens (Human), UniProt Q8TDX7+Q96SW2)) for this compound. CC(C)(C(=O)NCc1cc(Cl)c(C2CCC(=O)NC2=O)c(Cl)c1)c1cccc(NS(C)(=O)=O)c1 (centres unmarked)
### Response ≤ 100 nM

### Prompt Write down measured DC50 (NEK7 (Homo sapiens (Human), UniProt Q8TDX7+Q96SW2)) for this compound. CC(C)(C(=O)NCc1cc(Cl)c(C2CCC(=O)NC2=O)c(Cl)c1)c1ncc(CC(F)(F)F)cn1 (centres unmarked)
### Response 100 to 1000 nM

### Prompt Write down measured DC50 (NEK7 (Homo sapiens (Human), UniProt Q8TDX7+Q96SW2)) for this compound. CC(C)(C(=O)NCc1cc(Cl)c(C2CCC(=O)NC2=O)c(Cl)c1)c1cccc(S(C)(=O)=O)c1 (centres unmarked)
### Response ≤ 100 nM

### Prompt Write down measured DC50 (NEK7 (Homo sapiens (Human), UniProt Q8TDX7+Q96SW2)) for this compound. CC(C)(C(=O)NCc1cc(Cl)c(C2CCC(=O)NC2=O)c(Cl)c1)c1cnc(OC(F)(F)F)cn1 (centres unmarked)
### Response ≤ 100 nM

### Prompt Write down measured DC50 (NEK7 (Homo sapiens (Human), UniProt Q8TDX7+Q96SW2)) for this compound. CC(C)(C(=O)NCc1cc(Cl)c(C2CCC(=O)NC2=O)c(Cl)c1)c1ccn2nccc2c1 (centres unmarked)
### Response ≤ 100 nM

###

molecular target: CRBN-DDB1 (Homo sapiens (Human), UniProt Q96SW2); test: Compound binding to CRBN by HTRF assay
Sequence (Q96SW2 whole entry): as the sequence (Q96SW2 whole entry) above
Sequence (Q16531 whole entry partner): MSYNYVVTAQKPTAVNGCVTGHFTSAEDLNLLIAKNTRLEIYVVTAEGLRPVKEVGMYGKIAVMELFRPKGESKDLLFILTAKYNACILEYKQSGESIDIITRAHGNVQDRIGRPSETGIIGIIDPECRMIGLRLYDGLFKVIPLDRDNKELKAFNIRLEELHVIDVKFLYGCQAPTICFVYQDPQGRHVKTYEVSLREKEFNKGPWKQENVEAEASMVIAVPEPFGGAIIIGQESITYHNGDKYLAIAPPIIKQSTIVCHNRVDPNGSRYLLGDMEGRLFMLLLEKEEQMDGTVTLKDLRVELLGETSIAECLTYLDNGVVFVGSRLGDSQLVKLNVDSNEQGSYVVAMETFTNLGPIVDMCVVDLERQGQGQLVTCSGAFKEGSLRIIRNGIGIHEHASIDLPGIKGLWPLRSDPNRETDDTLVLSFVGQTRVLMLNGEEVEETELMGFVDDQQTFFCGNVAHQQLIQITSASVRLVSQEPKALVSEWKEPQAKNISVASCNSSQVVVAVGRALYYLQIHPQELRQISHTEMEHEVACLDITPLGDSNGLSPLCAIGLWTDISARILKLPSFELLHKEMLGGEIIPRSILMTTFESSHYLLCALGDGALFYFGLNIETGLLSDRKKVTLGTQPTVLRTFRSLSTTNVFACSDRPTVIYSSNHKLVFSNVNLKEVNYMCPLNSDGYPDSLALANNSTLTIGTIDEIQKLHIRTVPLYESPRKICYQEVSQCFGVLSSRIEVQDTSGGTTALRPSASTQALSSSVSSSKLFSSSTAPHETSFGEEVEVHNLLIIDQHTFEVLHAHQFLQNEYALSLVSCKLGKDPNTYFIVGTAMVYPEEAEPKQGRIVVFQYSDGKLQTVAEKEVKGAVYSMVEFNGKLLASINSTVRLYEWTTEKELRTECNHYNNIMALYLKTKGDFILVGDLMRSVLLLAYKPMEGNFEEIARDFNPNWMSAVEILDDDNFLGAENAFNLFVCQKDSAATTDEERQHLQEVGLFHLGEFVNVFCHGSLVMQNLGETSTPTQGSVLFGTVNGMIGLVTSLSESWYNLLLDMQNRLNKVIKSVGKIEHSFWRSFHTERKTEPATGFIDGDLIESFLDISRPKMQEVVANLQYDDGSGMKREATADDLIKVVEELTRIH
pEC50: −log10 of the molar value.
Kindly return condition met if reported pEC50 is no lower than 7; return condition not met if it is lower.

A selection of reference data follows.
1. CC(C)(C(=O)NCc1cc(Cl)c(C2CCC(=O)NC2=O)c(Cl)c1)c1cccc(S(C)(=O)=O)c1 (stereo not drawn)    condition met
2. CC(C)(C(=O)NCc1cc(Cl)c(C2CCC(=O)NC2=O)c(Cl)c1)c1ccnc(C(F)F)n1 (stereo not drawn)    condition not met
3. CC(C)(C(=O)NCc1cc(Cl)c([C@@]2(F)CCC(=O)NC2=O)c(Cl)c1)c1ccccc1 (single isomer, unassigned)    condition not met

Note: attention shifts to another entry.
### Prompt Textbook exercise: given the entry CC(C)(C(=O)NCc1cc(Cl)c(C2CCC(=O)NC2=O)c(Cl)c1)c1ccc(O)c(F)c1 (stereo not drawn) , state whether its pEC50 is greater than or equal to 7.
### Response condition met

###

biological target: NEK7 (Homo sapiens (Human), UniProt Q8TDX7+Q96SW2); test: NEK7 NanoBiT degradation assay in Cal51 NEK7 NanoBiT cell line; type: cell-based; conditions: CAL-51; NEK7 degradation, Cal51 NEK7 NanoBiT cells, 24 hours; read-out: NanoBiT Dmax
Measured Dmax by item

Sample records with Dmax:
1) Cc1cncc(C(C)(C)C(=O)NCc2cc(Cl)c(C3CCC(=O)NC3=O)c(Cl)c2)n1 (stereo not shown)    50 to 75%
2) CC(C)(C(=O)NCc1cc(Cl)c(C2CCC(=O)NC2=O)c(Cl)c1)c1cc(C2CC2)on1 (stereo not shown)    > 75%
3) Cc1cc(C(C)(C)C(=O)NCc2cc(Cl)c(C3CCC(=O)NC3=O)c(Cl)c2)ncn1 (stereo not shown)    > 75%
4) CC(C)(C(=O)NCc1cc(Cl)c(C2CCC(=O)NC2=O)c(Cl)c1)c1ccc2nccnc2c1 (stereo not shown)    > 75%
5) CCc1cnc(C(C)(C)C(=O)NCc2cc(Cl)c(C3CCC(=O)NC3=O)c(Cl)c2)cn1 (stereo not shown)    > 75%
6) Cc1ncc(C(C)(C)C(=O)NCc2cc(F)c(C3CCC(=O)NC3=O)c(Cl)c2)o1 (stereo not shown)    50 to 75%

# input for lookup
### Prompt Supply reported Dmax belonging to this compound: CC(C)(C(=O)NCc1cc(Cl)c(C2CCC(=O)NC2=O)c(Cl)c1)C1CCCO1 (stereo not shown)
### Response 50 to 75%

###

biological target: CRBN-DDB1 (Homo sapiens (Human), UniProt Q96SW2); assay: Compound binding to CRBN by HTRF assay
Structures can show the parent of a compound that is named as a salt.
Measured EC50 by item
The response must be a number in nM with no trailing unit.

1. CC(C)(C(=O)NCc1cc(Cl)c(C2CCC(=O)NC2=O)c(Cl)c1)c1ccc2[nH]ncc2c1 (stereo not shown)    60
2. CN1CCC(C(=O)NCc2cc(Cl)c(C3CCC(=O)NC3=O)c(Cl)c2)(c2ccc(F)cc2)CC1 (stereo not shown) [Compound 135, formate]    20
3. CC(C)(C(=O)NCc1cc(Cl)c(C2CCC(=O)NC2=O)c(Cl)c1)c1cccc(F)c1 (stereo not shown)    50
4. CC(C)(C(=O)NCc1cc(Cl)c(C2CCC(=O)NC2=O)c(Cl)c1)c1nccc(CO)n1 (stereo not shown)    120
5. Cc1cnc(C(C)(C)C(=O)NCc2cc(Cl)c(C3CCC(=O)NC3=O)c(Cl)c2)cn1 (stereo not shown)    290

# input for lookup
### Prompt Supply reported EC50 belonging to this compound: O=C1CCC(c2c(Cl)cc(CNC(=O)C3(c4ccc5cn[nH]c5c4)CCOCC3)cc2Cl)C(=O)N1 (stereo not shown)
### Response 20

###

Measured Dmax by item
target: NEK7 (Homo sapiens (Human), UniProt Q8TDX7+Q96SW2); test: NEK7 NanoBiT degradation assay in Cal51 NEK7 NanoBiT cell line; assay type: cell-based; conditions: CAL-51; NEK7 degradation, Cal51 NEK7 NanoBiT cells, 24 hours; read-out: NanoBiT Dmax
Counter-ions that a name gives are not always drawn.

1) CC1(C(=O)NCc2ccc(C3CCC(=O)NC3=O)c(Cl)c2)CCc2ccccc2C1 (stereo not drawn)    > 75%
2) CN1CCC(C(=O)NCc2cc(Cl)c(C3CCC(=O)NC3=O)c(Cl)c2)(c2ccc(F)cc2)CC1 (stereo not drawn) [Compound 135, formate]    50 to 75%

### Prompt Supply reported Dmax belonging to this compound: CC(C)(C(=O)NCc1cc(Cl)c(C2CCC(=O)NC2=O)c(Cl)c1)c1ccc(C#N)cc1 (stereo not drawn)
### Response > 75%

###

target: NEK7 (Homo sapiens (Human), UniProt Q8TDX7+Q96SW2); assay: NEK7 NanoBiT degradation assay in Cal51 NEK7 NanoBiT cell line; type: cell-based; conditions: CAL-51; NEK7 degradation, Cal51 NEK7 NanoBiT cells, 24 hours; read-out: NanoBiT Dmax
Measured Dmax by item

1) CC(C)(C(=O)NCc1cc(F)c(C2CCC(=O)NC2=O)c(Cl)c1)c1cc(F)ccn1 (stereo not drawn)    ≤ 50%
2) Cc1cnc(C(C)(C)C(=O)NCc2cc(F)c(C3CCC(=O)NC3=O)c(Cl)c2)o1 (stereo not drawn)    50 to 75%
3) CC(C)(C(=O)NCc1cc(Cl)c(C2CCC(=O)NC2=O)c(Cl)c1)c1ccccc1 (stereo not drawn)    > 75%

### Prompt Supply reported Dmax belonging to this compound: CC(C)(C(=O)NCc1cc(Cl)c(C2CCC(=O)NC2=O)c(Cl)c1)c1ncc(Cl)cn1 (stereo not drawn)
### Response > 75%

### Prompt Supply reported Dmax belonging to this compound: Cc1cc(C(C)(C)C(=O)NCc2cc(Cl)c(C3CCC(=O)NC3=O)c(Cl)c2)cc(C)n1 (stereo not drawn)
### Response > 75%

### Prompt Supply reported Dmax belonging to this compound: COc1conc1C(C)(C)C(=O)NCc1cc(F)c(C2CCC(=O)NC2=O)c(Cl)c1 (stereo not drawn)
### Response > 75%

### Prompt Supply reported Dmax belonging to this compound: O=C1CCC(c2c(Cl)cc(CNC(=O)C3(c4ccncc4)CCC3)cc2Cl)C(=O)N1 (stereo not drawn)
### Response > 75%

### Prompt Supply reported Dmax belonging to this compound: CC(C)(C(=O)NCc1cc(Cl)c(C2CCC(=O)NC2=O)c(Cl)c1)c1cnc(CC(F)F)cn1 (stereo not drawn)
### Response 50 to 75%

### Prompt Supply reported Dmax belonging to this compound: CC(C)(C(=O)NCc1ccc(C2CCC(=O)NC2=O)c(Br)c1)c1ccc(F)cc1 (stereo not drawn)
### Response > 75%
